Target: human insulin-like growth factor-II (IGF-II) (human, UniProt P01344 25-91)
Experiment: cell-based or functional assay
I'd appreciate it if you could supply EC50 (nM), n = 2, IGF-II Proliferation, BxPC3 cells values for the items below.
Quick note: number first, unit second.

Task: GET /values?readout=EC50 (nM), n = 2, IGF-II Proliferation, BxPC3 cells&item= mAb 7.234.2 (antibody, V domains shown, Kappa light chain (L5/JK3); also called 7.234.1; 7_234_1) VH: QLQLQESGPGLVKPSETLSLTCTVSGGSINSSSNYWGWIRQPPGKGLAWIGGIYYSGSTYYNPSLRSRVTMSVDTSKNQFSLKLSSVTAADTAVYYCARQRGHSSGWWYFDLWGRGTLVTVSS VL: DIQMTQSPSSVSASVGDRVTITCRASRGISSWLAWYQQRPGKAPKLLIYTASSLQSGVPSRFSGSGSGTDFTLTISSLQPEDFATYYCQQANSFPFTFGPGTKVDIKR
Output: 2.6 nM

Task: GET /values?readout=EC50 (nM), n = 2, IGF-II Proliferation, BxPC3 cells&item= mAb 7.251.3 (antibody, V domains shown, Fully human XenoMouse hybridoma mAb, lambda light chain (V1-13/JL2); also called ATCC PTA-7422) VH: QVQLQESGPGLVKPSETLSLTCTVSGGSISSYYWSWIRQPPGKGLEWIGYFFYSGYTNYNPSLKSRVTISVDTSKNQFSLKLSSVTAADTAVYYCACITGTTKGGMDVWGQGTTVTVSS VL: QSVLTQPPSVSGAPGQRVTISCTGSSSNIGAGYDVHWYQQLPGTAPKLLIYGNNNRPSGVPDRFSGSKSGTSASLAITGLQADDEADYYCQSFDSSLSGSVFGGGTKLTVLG
Output: 4.4 nM

Task: GET /values?readout=EC50 (nM), n = 2, IGF-II Proliferation, BxPC3 cells&item= mAb 7.34.1 (antibody, V domains shown, Fully human XenoMouse hybridoma mAb, lambda light chain (V1-13/JL2); also called ATCC PTA-7423) VH: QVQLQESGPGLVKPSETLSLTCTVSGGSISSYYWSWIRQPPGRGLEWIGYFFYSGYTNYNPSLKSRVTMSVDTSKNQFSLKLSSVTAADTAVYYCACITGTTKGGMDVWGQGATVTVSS VL: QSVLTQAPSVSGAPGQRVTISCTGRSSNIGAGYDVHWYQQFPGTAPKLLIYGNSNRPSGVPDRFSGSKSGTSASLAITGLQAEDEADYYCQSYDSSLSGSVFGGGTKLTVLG
Output: 6.7 nM
